Ref: patent US10093623B2

measurement-target: MetAP-2 (Homo sapiens)
Sequence (P50579 whole entry, species assumed): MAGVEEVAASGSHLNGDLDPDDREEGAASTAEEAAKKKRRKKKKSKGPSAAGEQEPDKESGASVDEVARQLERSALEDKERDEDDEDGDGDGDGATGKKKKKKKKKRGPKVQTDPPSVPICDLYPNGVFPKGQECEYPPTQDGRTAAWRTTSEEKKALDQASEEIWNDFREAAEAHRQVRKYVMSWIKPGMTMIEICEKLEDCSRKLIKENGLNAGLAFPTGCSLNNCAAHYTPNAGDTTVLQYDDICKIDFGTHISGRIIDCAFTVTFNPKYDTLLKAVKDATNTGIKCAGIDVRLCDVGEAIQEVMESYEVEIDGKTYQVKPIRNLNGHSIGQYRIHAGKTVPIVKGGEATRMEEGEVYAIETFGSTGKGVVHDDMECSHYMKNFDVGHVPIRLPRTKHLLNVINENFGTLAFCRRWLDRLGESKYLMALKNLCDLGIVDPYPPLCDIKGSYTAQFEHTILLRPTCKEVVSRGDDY
assay-remarks: MetAP-2 activity measurement (coupled enzymatic reactions, Met-Arg-Ser substrate, dianisidine detection at 450 nm)
Assay type: biochemical
conditions: Inhibition of MetAP-2; read-out: IC50 enzyme
measurement-kind: IC50

CCS(=O)(=O)N[C@H]1CC[C@H](N2CCC(O)(C(=O)NCc3cc(F)cc(Cl)c3)C2=O)CC1 (stereo partly drawn) | 1000 to 10000 nM
OC1(CNCc2cc(F)cc(F)c2)CCCN(Cc2ccccc2)C1 (stereo not drawn) | > 10000 nM

Can you look up the measured IC50 of CS(=O)(=O)N[C@H]1CC[C@H](N2CCC(O)(C(=O)NCc3cc(F)cc(Cl)c3)C2=O)CC1 (stereo partly drawn) for me?
1000 to 10000 nM

Can you look up the measured IC50 of CC(C)(C)OC(=O)N1CC(CN2CCC(O)(C(=O)NCc3cc(F)cc(Cl)c3)C2=O)C1 (stereo not drawn) for me?
1000 to 10000 nM

Can you look up the measured IC50 of O=C(NCc1cc(F)cc(Cl)c1)[C@@]1(O)CCN(CCc2ccccc2)C1=O for me?
10 to 1000 nM

Can you look up the measured IC50 of CCS(=O)(=O)Nc1cccc(N2CC[C@](O)(C(=O)NCc3cc(F)cc(Cl)c3)C2=O)c1 for me?
10 to 1000 nM

Can you look up the measured IC50 of O=C1N(c2ccccc2)CCC1(O)CNCc1ccc(F)cc1 (stereo not drawn) for me?
1000 to 10000 nM

Can you look up the measured IC50 of COCCn1cc(N2CC[C@@](O)(C(=O)NCc3cc(F)cc(Cl)c3)C2=O)cn1 for me?
> 10000 nM

Can you look up the measured IC50 of O=C(NCc1cc(F)cc(Cl)c1)[C@@]1(O)CCN(c2cc(C(F)(F)F)ccn2)C1=O for me?
10 to 1000 nM
